// each record: one item and its IC50 for human 5-HT6 receptor (Homo sapiens, UniProt P50406)
The figure you give is taken to be in nM; do not add the unit.

COc1ccc(S(=O)(=O)NCCc2cccc3cc(F)ccc23)cc1N1CCN(C)CC1 : 1.3
COc1ccc(S(=O)(=O)NCCc2cccc3ccccc23)cc1N1CCN(C)CC1 : 0.92
COc1ccc(S(=O)(=O)NCC2(c3cccc4cc(F)ccc34)CC2)cc1N1CCN(C)CC1 : 3.2
COc1ccc(S(=O)(=O)NCCc2cccc3cc(F)ccc23)cc1N1CCNCC1 : 4.1
COc1ccc2cccc(CCNS(=O)(=O)c3ccc(OC)c(N4CCNCC4)c3)c2c1 : 1

Exam item: Look up IC50 for this compound: COc1ccc(S(=O)(=O)NCCc2ccc(OC)c3ccccc23)cc1N1CCNCC1
Marked response: 5.5

###

The compounds listed here are annotated with their IC50.
- ASSAYED_TARGET: human 5-HT6 receptor (Homo sapiens)
- Sequence (P50406 whole entry): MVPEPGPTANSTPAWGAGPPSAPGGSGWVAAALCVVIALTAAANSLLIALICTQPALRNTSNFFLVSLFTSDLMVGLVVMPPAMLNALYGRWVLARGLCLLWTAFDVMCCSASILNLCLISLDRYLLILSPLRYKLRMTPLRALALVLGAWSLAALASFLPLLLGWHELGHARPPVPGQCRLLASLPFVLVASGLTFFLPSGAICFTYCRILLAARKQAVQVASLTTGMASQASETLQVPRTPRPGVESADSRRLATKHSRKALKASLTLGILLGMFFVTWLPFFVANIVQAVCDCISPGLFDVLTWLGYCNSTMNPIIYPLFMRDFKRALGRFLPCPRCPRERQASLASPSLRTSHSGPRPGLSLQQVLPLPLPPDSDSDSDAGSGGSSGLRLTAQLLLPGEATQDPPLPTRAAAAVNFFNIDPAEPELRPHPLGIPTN
The figure you give is taken to be in nM; do not add the unit.

Worked cases, answers included:
COc1ccc(S(=O)(=O)NCC(C)(C)c2cccc3ccc(Br)cc23)cc1N1CCN(C)CC1 : 0.31
COc1ccc(S(=O)(=O)NCCc2cccc3ccccc23)cc1N1CCNCC1 : 2.7
COc1ccc2cccc(C3(CNS(=O)(=O)c4ccc(OC)c(N5CCN(C)CC5)c4)CC3)c2c1 : 2.1
COc1ccc(S(=O)(=O)NCCc2cccc3ccc(Br)cc23)cc1N1CCN(C)CC1 : 0.17
COc1ccc(S(=O)(=O)NCC(C)(C)c2cccc3cc(F)ccc23)cc1N1CCNCC1 : 11

Exam item: Look up IC50 for this compound: COc1ccc(S(=O)(=O)NCC(C)(C)c2cccc3ccccc23)cc1N1CCNCC1
Marked response: 1.3

Exam item: Then COc1ccc(S(=O)(=O)NCCc2cccc3ccc(Br)cc23)cc1N1CCNCC1 ?
Marked response: 2.1
